// provenance: patent US20180355061A1

target: T1, biotinylated Human PD-1/PDCD1 (Acro Biosystems. Cat #PD1-H82E4) (human, UniProt Q15116 25-167, biotinylated); assay: Fab ELISA: Fab captured by anti-Fd(CH1), biotinylated human PD-1 at 5 nM, streptavidin-HRP chemiluminescence; reference parental PD1B878 Fab
T1 construct: Bought reagent, construct not described
T1 sequence (Q15116 25-167 limits assumed): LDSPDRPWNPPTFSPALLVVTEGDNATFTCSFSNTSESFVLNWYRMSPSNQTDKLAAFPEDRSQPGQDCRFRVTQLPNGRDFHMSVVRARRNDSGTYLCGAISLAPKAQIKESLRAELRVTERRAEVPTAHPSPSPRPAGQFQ
observation.type: fold binding relative to parental Fab

Read off the recorded fold binding relative to parental Fab for Fab variant of PD1B878 with VH PD1H587 (E57W) (Fab, V domains shown, Soluble Fab in E. coli supernatant; pairing with the parental VL inferred) VH: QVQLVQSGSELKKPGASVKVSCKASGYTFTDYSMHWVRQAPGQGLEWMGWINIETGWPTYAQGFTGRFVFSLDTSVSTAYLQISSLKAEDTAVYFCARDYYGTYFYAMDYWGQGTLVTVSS VL: EIVLTQSPATLSLSPGERATLSCTASSSVSSSYLHWYQQKPGLAPRLLIYSTSNLASGIPDRFSGSGSGTDYTLTISRLEPEDFAVYYCHQYHRSPLTFGQGTKLEIK
≥ 10 fold
